- Tested System: Cytochrome P450 3A7 (Homo sapiens)
- Assay Details: Cytochrome P450 family 3 subfamily A member 7 (CYP3A7) small molecule antagonists: luciferase biochemical qHTS assay (AID 1963596); note: nearly all actives have a fitted effect of over 40% in size
- Condition: P450-Glo CYP3A7 enzyme luminescence, 1 h; series mostly up to 57.4 µM
Results filed as inconclusive are left out. Activity calls are given as the source filed them. Calls come from the whole dose curve; as a rule, active = well fitted inhibition curve with a large enough effect; inconclusive = small, poorly fitted or top-dose-only effect; inactive = no such curve, though single readings can be large or run the other way.
// one of T = active, F = inactive, no free text

Q) Hi, sorry to bother you, what did the test record for CCN1CCC[C@@H]1CNC(=O)c1ccc2c(c1)NC(=O)c1cccc(C)c1S2 ?
A) T

Q) Hi, sorry to bother you, what did the test record for C#CCC(Cc1cnc2nc(N)nc(N)c2n1)c1ccc(C(=O)N[C@@H](CCC(=O)O)C(=O)O)cc1 (stereo not given in full) ?
A) F

Q) Hi, sorry to bother you, what did the test record for N[C@@H](COP(=O)(O)O)C(=O)O ?
A) F

Q) Hi, sorry to bother you, what did the test record for COc1cc2c(Nc3ccc(Cl)c(Cl)c3F)ncnc2cc1OCC1C[C@@H]2CN(C)C[C@@H]2C1 (stereo not given in full) ?
A) F

Q) Hi, sorry to bother you, what did the test record for NC(=O)CC[C@@H]1NC(=O)[C@H](Cc2ccccc2)NC(=O)[C@H](Cc2ccc(O)cc2)NC(=O)CCSSC[C@@H](C(=O)N2CCC[C@H]2C(=O)N[C@@H](CCCN=C(N)N)C(=O)NCC(N)=O)NC(=O)[C@H](CC(N)=O)NC1=O ?
A) F

Q) Hi, sorry to bother you, what did the test record for O=C(O)C1CSC(C(=O)O)N1 (stereo not given) ?
A) F

Q) Hi, sorry to bother you, what did the test record for Cc1c(C(=O)N2CCOc3ccc(-c4ccc(N)nc4)cc3C2)ccc(S(C)(=O)=O)c1F ?
A) F

Q) Hi, sorry to bother you, what did the test record for CC(=O)N(CC(O)CO)c1c(I)c(C(=O)NCC(O)CO)c(I)c(C(=O)NCC(O)CO)c1I (stereo not given) ?
A) F

Q) Hi, sorry to bother you, what did the test record for CCN1CCN(C(=O)N[C@@H](C(=O)N[C@@H]2C(=O)N3[C@@H]2SC(C)(C)[C@H]3C(=O)O)c2ccccc2)C(=O)C1=O ?
A) F

Q) Hi, sorry to bother you, what did the test record for NC[C@H]1CCC[C@@H](CNC(=O)[C@@H](Cc2c[nH]c3ccccc23)NC(=O)N2CCC3(C=Cc4ccccc43)CC2)C1 ?
A) F

Q) Hi, sorry to bother you, what did the test record for O=C(O)CNC(=O)c1ccccc1I ?
A) F

Q) Hi, sorry to bother you, what did the test record for O=C(Nc1ccc(-c2ccnc(Nc3ccc(N4CCOCC4)cc3)n2)cc1)C1CCCN1 (stereo not given) ?
A) F

Q) Hi, sorry to bother you, what did the test record for [O-][n+]1cccc(CO)c1 ?
A) F

Q) Hi, sorry to bother you, what did the test record for CCCOc1ccccc1-c1nc2n[nH]nc2c(=O)[nH]1 ?
A) F

Q) Hi, sorry to bother you, what did the test record for C[C@H]1[C@H]2CC[C@H]3[C@@H]4CC=C5C[C@@H](N(C)C)CC[C@]5(C)[C@H]4CC[C@]23CN1C ?
A) F

Q) Hi, sorry to bother you, what did the test record for Cc1cccc(NC(=O)Cn2c(=O)n(Cc3ccc(C(=O)NCc4ccc5c(c4)OCO5)cc3)c(=O)c3ccccc32)c1 ?
A) F

Q) Hi, sorry to bother you, what did the test record for C[C@@H]1CN(c2c(F)c(F)c3c(=O)c(C(=O)O)cn(C4CC4)c3c2F)C[C@H](C)N1 ?
A) F

Q) Hi, sorry to bother you, what did the test record for Cc1ccc(CNC(=O)C2CCN(S(=O)(=O)c3c(C)noc3/C=C/c3ccccc3F)CC2)o1 ?
A) F

Q) Hi, sorry to bother you, what did the test record for O=C1O[C@H](CO)[C@@H](O)[C@H](O)[C@H]1O ?
A) F

Q) Hi, sorry to bother you, what did the test record for CO/N=C(/C(=O)N[C@@H]1C(=O)N2C(C(=O)O)=C(Cn3nnc(C)n3)CS[C@H]12)c1csc(N)n1 ?
A) F

Origin of the recorded values: PubChem BioAssay (NCATS)
